tested.on: T1, Cyno CD47 ECD protein, His-tagged, monomer (cyno)
T1 construct: extracellular domain; also called cynomolgus CD47
measurement.protocol: ProteOn SPR; cyno KD / human KD
Recorded measurements of KD Ratio Cyno/Human, one per entry
Answer field: number only, no words.

*Q* Can you look up the measured KD Ratio Cyno/Human of C47B234 (antibody, V domains shown, human IgG2sigma/kappa) VH: EVQLVQSGAEVKKPGESLKISCKGSGYSFDNYWIGWVRQMPGKGLEWMGIIYPGDSDTRYSPSFQGQVTISADKSISTAYLQWSSLKASDTAVYYCARVGRFASHQLDYWGQGTLVTVSS VL: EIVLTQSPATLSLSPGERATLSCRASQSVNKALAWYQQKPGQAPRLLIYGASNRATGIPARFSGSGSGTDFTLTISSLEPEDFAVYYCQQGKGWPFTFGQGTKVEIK for me?
*A* 1.8
